Measured POC (Percent of control) MST2, listed per entry.
Target: ProfilerPro Kinase Selectivity Assay Kit kinases (Homo sapiens)
Type: biochemical
Settings: MST2; 1 μM compound concentration
Please give a number only; it is taken to be in POC.

Worked examples follow.
compound	quantitativeReadout
Cc1nc(N)nc(-c2cccnc2Nc2cccc(O)c2)n1	101
COc1ccc(Nc2ncccc2-c2nc(C)nc3[nH]cnc23)cn1	100

What the record says about Cc1nc(-c2cccnc2Nc2cccc3[nH]ncc23)c2nc[nH]c2n1 : POC (Percent of control) MST2 is 95

---

Tested on: phosphorylation of Akt at Serine 473 in U87 MG cells
Experiment: cells
Conditions: Homo sapiens, U-87 MG, 2 h, read-out: U87Cell IC50, pAkt (Ser 473), U87 MG cells, two hours with compound
Measured pIC50, listed per entry.
# reply with the number alone; pIC50 is -log10 of concentration in mol/L

Worked examples follow.
compound	quantitativeReadout
COc1ccc(COCc2cnc(Nc3cccc4[nH]ccc34)c(-c3nc(C)nc4[nH]cnc34)c2)cc1	5.92
COc1ccc(Nc2ncc(CNc3cccnn3)cc2-c2nc(C)nc3[nH]cnc23)cn1	6.52
COc1ccc(Nc2cnc(Nc3ccc(OC)nc3)c(-c3nc(C)nc4[nH]cnc34)c2)cc1	6.89
Cc1nc(N)nc(-c2cccnc2Nc2ccc(Cl)nc2)n1	6.17
Cc1nc(-c2cc(Cc3ccc(S(C)(=O)=O)cc3)cnc2Nc2cccc3[nH]ncc23)c2nc[nH]c2n1	6.89

What the record says about COc1ncc(Nc2ncc([C@H](C)N3CCOCC3)cc2-c2nc(C)nc(N)n2)cc1F (single isomer, unassigned) : pIC50 is 7.70

What the record says about COc1ncc(Nc2ncc([C@@H](C)N3CCOCC3)cc2-c2nc(C)nc(N)n2)cc1F (single isomer, unassigned) : pIC50 is 8.15
